procedureText: LNP size and polydispersity index (PDI) by dynamic light scattering
Format: physicochemical
appliedConditions: LNP with cirRNA (SEQ ID NO: 1)
Returns rule met if the recorded PDI is greater than or equal to 0.2, and rule not met otherwise.

Before answering, review these 5 worked examples.
CCCCC/C=C\C/C=C\CCCCCCCCN(CCCCCCCC/C=C\C/C=C\CCCCC)CCOC(=O)NCCN1CCCCC1    rule not met
CCCCCCCCCCCOC(=O)CCCCCN(CCCCCC(=O)OCCCCCCCCCCC)CCOC(=O)NCCN1CCCC1    rule not met
CCCCC/C=C\CCOC(=O)CCCCCN(CCCCCCCCOC(=O)C(CCCCCC)CCCCCCCC)CCOC(=O)NCCN1CCN(C)CC1 (stereo not drawn)    rule met
CCCCCCCCCC(=O)OCCCCCCCN(CCCCCCCCOC(=O)C(CCCCCC)CCCCCCCC)CCOC(=O)NCc1ncc[nH]1 (stereo not drawn)    rule met
CCCCCCCCCCCOC(=O)CCCCCN(CCCCCCCCOC(=O)C(CCCCCC)CCCCCCCC)CCOC(=O)NCCN1CCCC1 (stereo not drawn)    rule met

## Task Form field: PDI at least 0.2? Entry: CCCCCCCOC(=O)CCCCCCCCCN(CCCCCCCCCC(=O)OCCCCCCC)CCOC(=O)NCCN1CCCC1
## Result rule not met

## Task Form field: PDI at least 0.2? Entry: CCCCC/C=C\C/C=C\CCCCCCCCN(CCCCCCCC(=O)OC(CCCCCCCC)CCCCCCCC)CCCOC(=O)NCCN1CCOCC1
## Result rule not met

## Task Form field: PDI at least 0.2? Entry: CCCCC/C=C\CCOC(=O)CCCCCN(CCCCCCCCOC(=O)C(CCCCCC)CCCCCCCC)CCOC(=O)NCCN(C)C (stereo not drawn)
## Result rule met

## Task Form field: PDI at least 0.2? Entry: CCCCCCCCCC(=O)OCCCCCCCCN(CCCCCCCCOC(=O)CCCCCCCCC)CCOC(=O)NCc1ncc[nH]1
## Result rule not met

## Task Form field: PDI at least 0.2? Entry: CCCCCCOC(=O)CCCCCCCCCCN(CCCCCCCCCCC(=O)OCCCCCC)CCOC(=O)NCCCN(CC)CC
## Result rule not met

## Task Form field: PDI at least 0.2? Entry: CCCCC/C=C\C/C=C\CCCCCCCCN(CCCCCCCC/C=C\C/C=C\CCCCC)CCOC(=O)NCc1ccncc1
## Result rule not met

## Task Form field: PDI at least 0.2? Entry: CCCCCCCCC(CCCCCCCC)OC(=O)CCCCCCCN(CCCCCCCCOC(=O)C(CCCCCC)CCCCCCCC)CCCOC(=O)NCCCN(C)C (stereo not drawn)
## Result rule met

## Task Form field: PDI at least 0.2? Entry: CCCCCCCC/C=C\CCCCCCCCN(CCCCCCCCOC(=O)C(CCCCCC)CCCCCCCC)CCOC(=O)NCCCN(C)C (stereo not drawn)
## Result rule met

## Task Form field: PDI at least 0.2? Entry: CCCCCCCCCC(=O)OCCCCCCCN(CCCCCCCCOC(=O)C(CCCCCC)CCCCCCCC)CCOC(=O)NCCCN1CCCCC1 (stereo not drawn)
## Result rule not met

## Task Form field: PDI at least 0.2? Entry: CCCCCCCC/C=C\CCCCCCCCN(CCCCCCCCOC(=O)C(CCCCCC)CCCCCCCC)CCOC(=O)NCCCn1ccnc1 (stereo not drawn)
## Result rule not met

## Task Form field: PDI at least 0.2? Entry: CCCCCCCCCCC(CCCCCCCC)COC(=O)CCCCCN(CCCCCC(=O)OCC(CCCCCCCC)CCCCCCCCCC)CCOC(=O)NCCN1CCCCC1 (stereo not drawn)
## Result rule not met

## Task Form field: PDI at least 0.2? Entry: CCCCCCCCCCC(CCCCCCCC)COC(=O)CCCCCN(CCCCCC(=O)OCC(CCCCCCCC)CCCCCCCCCC)CCOC(=O)NCc1ncc[nH]1 (stereo not drawn)
## Result rule not met

## Task Form field: PDI at least 0.2? Entry: CCCCCCCCCCCOC(=O)CCCCCN(CCCCCC(=O)OCCCCCCCCCCC)CCOC(=O)NCc1ncc[nH]1
## Result rule not met

## Task Form field: PDI at least 0.2? Entry: CCCCCCCCC(CCCCCC)C(=O)OCCCCCCCCN(CCCCCCCCOC(=O)C(CCCCCC)CCCCCCCC)CCCOC(=O)NCCN(C)C (stereo not drawn)
## Result rule not met

## Task Form field: PDI at least 0.2? Entry: CCCCCCCCCCCOC(=O)CCCCCN(CCCCCCCCOC(=O)C(CCCCCC)CCCCCCCC)CCOC(=O)NCCN1CCN(C)CC1 (stereo not drawn)
## Result rule met

## Task Form field: PDI at least 0.2? Entry: CCCCCCCCCCCOC(=O)CCCCCN(CCCCCCCC(=O)OC(CCCCCCCC)CCCCCCCC)CCOC(=O)NCCN1CCCC1
## Result rule met

## Task Form field: PDI at least 0.2? Entry: CCCCC/C=C\C/C=C\CCCCCCCCN(CCCCCCCC(=O)OC(CCCCCCCC)CCCCCCCC)CCOC(=O)NCCCN(CC)CC
## Result rule met

## Task Form field: PDI at least 0.2? Entry: CCCCC/C=C\C/C=C\CCCCCCCCN(CCCCCCCC(=O)OC(CCCCCCCC)CCCCCCCC)CCCOC(=O)NCCCn1ccnc1
## Result rule not met

## Task Form field: PDI at least 0.2? Entry: CCCCC/C=C\C/C=C\CCCCCCCCN(CCCCCCCC(=O)OC(CCCCCCCC)CCCCCCCC)CCCOC(=O)NCCN1CCN(C)CC1
## Result rule met

## Task Form field: PDI at least 0.2? Entry: CCCCCCCCCCCOC(=O)CCCCCN(CCCCCCCCOC(=O)C(CCCCCC)CCCCCCCC)CCOC(=O)NCCN1CCOCC1 (stereo not drawn)
## Result rule not met

## Task Form field: PDI at least 0.2? Entry: CCCCCCCCCCC(CCCCCCCC)COC(=O)CCCCCN(CCCCCC(=O)OCC(CCCCCCCC)CCCCCCCCCC)CCCOC(=O)NCCNC(C)C (stereo not drawn)
## Result rule met

## Task Form field: PDI at least 0.2? Entry: CCCCCCCCCCC(CCCCCCCC)COC(=O)CCCCCN(CCCCCC(=O)OCC(CCCCCCCC)CCCCCCCCCC)CCCOC(=O)NCCN1CCCCC1 (stereo not drawn)
## Result rule not met
